- System: MALME3 melanoma viability, CellTiter-Glo luminescence, 24 h
- assay-protocol: growth inhibition of MALME3 cells – cell-based, CellTiter-Glo, cherry-picked, orthogonal assay for MITF inhibitor project, dose response (AID 493191)
measurement-name: AC50

1) O=C(Nc1ccc(N2CCN(C(=O)c3ccc(Cl)cc3)CC2)cc1)c1ccc([N+](=O)[O-])o1 = 16.7 µM
2) O=C1C(Cl)=C(N2CCN(c3ccccc3[N+](=O)[O-])CC2)C(=O)c2ccccc21 = 18.2 µM
3) COc1cccc(/C=N/Nc2ccc(C(=O)O)cc2)c1O = 33.2 µM
4) Nc1nc2ccccc2n1/N=C/c1ccc([N+](=O)[O-])s1 = 16.3 µM

====

- System: MALME3 melanoma viability, CellTiter-Glo luminescence, 24 h
- assay-protocol: growth inhibition of MALME3 cells – cell-based, CellTiter-Glo, cherry-picked, orthogonal assay for MITF inhibitor project, dose response (AID 493191)
measurement-name: AC50

1. O=C(/C=C/c1ccc([N+](=O)[O-])s1)N1CCCCC1 = 30.7 µM
2. CN(C(=O)/C=C/c1ccc([N+](=O)[O-])s1)c1ccccc1 = 34.4 µM
3. COC(=O)CCS(=O)(=O)c1nc(-c2ccccc2)cc(C(F)(F)F)n1 = 14.9 µM
4. CC(C)(C)C(=O)Cn1ncc(Cl)c(Cl)c1=O = 18 µM
5. O=C(N/N=C/c1ccc(O)c2ncccc12)c1cccc(Br)c1 = 14.7 µM
6. O=C(CCl)N1CCN(S(=O)(=O)c2ccc3c(c2)CCC3)CC1 = 25.5 µM
7. CCOC(=O)c1cc([N+](=O)[O-])c([N+](=O)[O-])cc1NC(C)=O = 29.9 µM
8. COc1ccccc1NS(=O)(=O)c1cccc(C(=O)N/N=C/c2ccc([N+](=O)[O-])o2)c1 = 14.6 µM
9. O=C(NC1CCCC(C(F)(F)F)C1)c1ccc([N+](=O)[O-])o1 (configuration not stated) = 20.8 µM
10. CC(C)C(CCNC1CCN(C)CC1)c1ccc(Cl)cc1 (configuration not stated) = 24.3 µM
11. COc1ccc(N(Cc2cc(=O)[nH]c3ccccc23)C(=O)CCl)cc1 = 15.8 µM
12. CC1CCC(C(C)C)C(OC(=O)Cn2c(-c3ccc(Cl)cc3)[n+](C)c3ccccc32)C1 (configuration not stated) = 11.7 µM
13. CCN1c2ccccc2NC2N=C(OC)C(c3ccccc3)C21 (configuration not stated) = 7.13 µM
14. O=c1c(Cl)c(Cl)cnn1Cc1ccc(F)cc1 = 31.6 µM
15. COc1ccc2oc(C(=O)Nc3ccc(S(=O)(=O)N(C)C4CCN(C)CC4)cc3)c(C)c2c1 = 33.5 µM
16. COc1ccc(C)c2sc(N(CCN(C)C)C(=O)/C=C/c3cccs3)nc12 = 25.1 µM
17. COc1cccc(C(=O)Oc2c(CN3CCOCC3)cc(Cl)c3cccnc23)c1 = 30.7 µM

====

- Test system: MALME3 melanoma viability, CellTiter-Glo luminescence, 24 h
- assay-protocol: growth inhibition of MALME3 cells – cell-based, CellTiter-Glo, cherry-picked, orthogonal assay for MITF inhibitor project, dose response (AID 493191)
measurement-name: AC50

1) CC(C)(c1ccccc1)c1ccc(OCC(O)CNC2CCN(Cc3ccccc3)CC2)cc1 (centres undefined) = 13.5 µM
2) Cc1ccc2nc(N(CCCN(C)C)C(=O)c3ccc4c(c3)CCCC4)sc2c1 = 21.6 µM
3) CCc1cc[n+](C2=C([O-])c3ccccc3C(=O)/C2=N\S(=O)(=O)c2cccs2)cc1 = 4.51 µM
4) CC(C)(C)c1ccc(OCCCNCc2ccccc2)cc1 = 27.4 µM

====

- Test system: MALME3 melanoma viability, CellTiter-Glo luminescence, 24 h
- assay-protocol: growth inhibition of MALME3 cells – cell-based, CellTiter-Glo, cherry-picked, orthogonal assay for MITF inhibitor project, dose response (AID 493191)
measurement-name: AC50

1. CCOc1cc(/C=N/N=C(N)N)ccc1OCc1ccc(Cl)cc1 = 18.8 µM
2. COc1ccc(C(=O)/C=C/C(=O)N(CC(=O)NC2CCCCC2)Cc2cccs2)c(O)c1 = 5.25 µM
3. CCOc1ccc(-n2c(C)cc(C(=O)CCl)c2C)cc1 = 19.9 µM
4. CC(C)Oc1ccc(C(CCN)C2CCCCC2)cc1 (stereo not drawn) = 14.6 µM
5. CC1CCC(C(C)C)C(OC(=O)Cn2c(-c3ccc(Br)cc3)[n+](C)c3ccccc32)C1 (stereo not drawn) = 10.1 µM
6. CCS(=O)(=O)c1ccc(N=Nc2ccc(O)c3ncccc23)c(OC)c1 = 5.85 µM
7. C=C1C(=O)O[C@@H]2[C@H]1[C@@H](OC(=O)/C(C)=C/C)C/C(C)=C\C(=O)/C=C(\C)[C@@H]2O = 6.41 µM
8. O=C(Cn1ncc(Cl)c(Cl)c1=O)N1CCc2ccccc21 = 5.98 µM
